The reported numbers originate from PubChem BioAssay (NCI).

# Test system: COLO 205 colon
# assay overview: NCI-60 one-dose screen, 48 h (100 = growth as untreated, 0 = no growth, -100 = all killed)
# stated conditions: 10 µM unless noted
This is part of a sample that, as a whole, favours compounds with a hit. Of some 83,000 tested, about 20% had one in any assay.
observable: growth (%)

* CCCCCCCCCCCCCCCCNC(=O)Nc1ccc(C)c(NC(=O)NCCCCCCCCCCCCCCCC)c1 | 116
* O=C(O)c1ccc(-c2nn(-c3ccc(C(=O)O)cc3)cc2CNc2ccc(Br)cc2)cc1 | 108
* CCC(CCCN1C(=O)c2ccccc2C1=O)Nc1cc(OC)cc2c(C)ccnc12 (stereo not given) | 104
* COc1ccc2c(c1)/C(=C/c1c(-c3cc(OC)c(OC)c(OC)c3)nc3sccn13)C(=O)N2 | 107
* CC(=O)Nc1ccc(CC#N)cc1Br | 109

====

# Tested on: UACC-62 melanoma
# assay overview: NCI-60 one-dose screen, 48 h (100 = growth as untreated, 0 = no growth, -100 = all killed)
# stated conditions: 10 µM unless noted
Compounds without any hit were thinned out: in the full panel of roughly 83,000, 20% have a hit. Active and inactive are the calls of the source. The calls were made as follows: active = growth percent below 10; inactive = the rest.
observable: growth

• CCC(CCCN1C(=O)c2ccccc2C1=O)Nc1cc(OC)cc2c(C)ccnc12 (centres undefined) = 69.5% (inactive)
• COc1ccc(C(O)(c2ccccc2)C(C(=O)O)c2ccccc2)cc1 (centres undefined) = 93.6% (inactive)
• CCCC(CCC)Oc1ccc(CCCC2=C(O)c3ccccc3C(=O)C2=O)cc1 = 30.4% (inactive)
• COc1ccc(C2=NN(C(=O)c3cc(-c4ccc(C)cc4)nc4ccccc34)C(c3cc(-c4ccccc4)nn3-c3ccccc3)C2)cc1 (centres undefined) = 83.5% (inactive)
• COC(=O)C(Cc1cnc[nH]1)N1CC(=O)N2[C@@H](c3ccccc3)SC[C@H]2C1=O (some centres undefined) = 106% (inactive)
• Br/C(=N\Nc1nn[nH]n1)c1ccccc1 = 101% (inactive)
• CC(C)C(=O)c1ccc(Cl)s1 = 100% (inactive)
• COc1ccc2cc(C(C)C(=O)Nc3ccc(S(=O)(=O)Nc4cc(C)on4)cc3)ccc2c1 (centres undefined) = 108% (inactive)
• COC(=O)c1ccc2[nH]c(O)c(C(=Nc3ccc(N(C)C(=O)CN4CCN(C)CC4)cc3)c3ccc([N+](=O)[O-])cc3)c2c1 = 52.7% (inactive)

====

# Tested on: SF-539 CNS
# assay overview: NCI-60 one-dose screen, 48 h (100 = growth as untreated, 0 = no growth, -100 = all killed)
# stated conditions: 10 µM unless noted
This is part of a sample that, as a whole, favours compounds with a hit. Of some 83,000 tested, about 20% had one in any assay.
observable: growth (%)

• CCCCCSc1ccc2nc(NC(=O)OCCC)sc2c1 = -24.7
• COC1(OC)N=C(N)C2(C#N)C3(C(=O)Nc4ccccc43)C12C#N (configuration not stated) = 61.2
• COc1cccc(Cn2cc3c(c2)-c2oncc2CC3)c1 = -7.13
• C[n+]1c2ccccc2c(Nc2ccc(NS(=O)(=O)CCCCN=C(N)N)cc2)c2ccc(N)cc21 = 43
• COc1ccc(Cn2cc3c(c2-c2ccc(O)cc2)CCc2cnoc2-3)cc1 = -16.2
• Cc1ccc(OCCn2ccc(=O)n(CCOc3ccc(Cl)cc3C(=O)c3cc(C)cc(C)c3)c2=O)cc1 = 53.7
• O=C(Nc1ccc(-n2cc(-c3ccncc3)c(-c3ccc(Cl)c(O)c3)n2)cc1)c1ccc(Cl)c(C(F)(F)F)c1 = -32.4
• O=P(OCCCl)(OCCCl)C(O)c1ccccc1Cl (configuration not stated) = 98.1
• C/C(CCC(=O)O)=N/Nc1ccc([N+](=O)[O-])cc1 = 12.7
• COC(=O)c1c[n+]([O-])ccc1OC = 122
• COc1cc(OC)c2c(=O)cc(-c3ccccc3)oc2c1 = 108
• COC(=O)/C(Br)=C/c1c[nH]c2ccc(Br)cc12 = 95
• BrCCCOc1ccc(Oc2ccc(OCCCBr)cc2)cc1 = 113
• O=C(/C=C1\C(=O)N(Cc2ccc([N+](=O)[O-])cc2)c2ccccc21)c1ccc(OCCN2CCCC2)cc1 = 67.6
• COc1cc(-c2nn(-c3ccc(NC(=O)c4ccc(Cl)c(Cl)c4)cc3)cc2-c2ccncc2)ccc1Cl = 47.7
• O=C(N/N=C/c1cc(Cl)ccc1O)C(=O)N/N=C/c1cc(Cl)ccc1O = 57.3
• Ic1ccc(SSc2ccc(I)cc2)cc1 = 86.1
• CC(O)CCC(C)[N+](=O)[O-] (configuration not stated) = 99
• N#Cc1c2cccnc2c2nnc3cc(Cl)c(Cl)cc3n12 = 35.1
• O=C(CCl)c1ccc2c(c1)CCCC2 = 90.8
• N#Cc1c(N)nc(Nc2nc3ccccc3[nH]2)nc1-c1ccc(Cl)cc1 = 111
• Cc1ccc(C(=O)C(Br)C(Br)c2ccccc2)cc1 (configuration not stated) = 100
• CC(=N\N=C(N)N)/C(=N/N=C(N)N)c1ccccc1 = 74.6
• CC1Cc2cc(F)ccc2-n2cccc21 (configuration not stated) = 101
• O=C(O)c1ccc(-c2nn(-c3ccc(C(=O)O)cc3)cc2CNc2ccc(Br)cc2)cc1 = 101
• CCC(C)C1NC(=O)C(CC(C)C)NC(=O)C(C)NC(=O)C(C(C)C)NC(=O)C(CCCCN)NC(=O)C(CC(C)C)NC(=O)C(C(C)C)NC(=O)[C@H](C)NC(=O)C(C(C)CC)NC(=O)C(CCCN=C(N)N)NC(=O)C(CCCCN)NC(=O)C(CCCN=C(N)N)NC(=O)C(CCCCN)NC(=O)C([C@H](C)CC)NC(=O)C(CCCCN)NC1=O (some centres not stated) = 67.2
• CC(C)(C)c1cc(C[P+](c2ccc(Cl)cc2)(c2ccc(Cl)cc2)c2ccc(Cl)cc2)cc(C(C)(C)C)c1O = 105
• COc1cc2ncnc(Nc3ccc4c(cnn4C(=O)Nc4ccccc4)c3)c2cc1OC = 86.1
• COC(c1ccccc1)C(Br)C(=O)c1ccccc1 (configuration not stated) = 99.5
• Cc1cc2cn3c4ccc(O)cc4nc(N)c3c2cc1C = 11.4
• Oc1ccc(Br)cc1/C=N/NC(=S)NC12CC3CC(CC(C3)C1)C2 = 36.7
• CCC(C)(C)c1ccc(OCCCCCCN2CCNCC2)cc1 = 61.4
• c1cc(C2CCCCC2)ccc1OCCCCCCN1CCNCC1 = 32.4
• CCCCCCC(C(=O)OCC)(C(=O)OCC)C1CCCCCC1 = 92.8
• CCCCCCNc1nc(N2CCOCC2)c2[nH]c(NCCCCCC)nc2n1 = -94.4
• Cc1c(Cc2ccccc2)c(=O)oc2c(C)c(OCc3n[nH]c(=S)o3)ccc12 = 92.1
• CCCCCCCCc1ccc(CCC(N)(CO)CO)cc1 = 17.3
• O=C(CCCC(=O)Nc1ccc(Cn2nnc3cc(Cl)c(Cl)cc32)cc1)Nc1ccc(CN2N=NC3C=C(Cl)C(Cl)=CC32)cc1 (configuration not stated) = 88.2
• CN(CCC#N)c1ccc(/C=C(\C#N)c2cccc(C(F)(F)F)c2)cc1 = 68
• COc1ccc(-n2nnnc2-c2cn[nH]c2C(F)(F)F)cc1 = 89.6
• O=C(NC1CCN(Cc2ccccc2)CC1)c1cc(-c2cccnc2)nc2ccc(Cl)cc12 = 63.9
• CC(C)OC(=O)c1ccc2n1CCCc1cnc(Nc3ccccc3)nc1-2 = 86.1

====

# System: OVCAR-5 ovarian
# assay overview: NCI-60 one-dose screen, 48 h
# stated conditions: 10 µM unless noted
The panel holds about 83,000 compounds, 20% with a hit somewhere; the sample as a whole holds those more often. Activity calls are given as the source filed them. The calls were made as follows: active = growth percent below 10; inactive = the rest.
Labels: active, inactive

• COc1cc(Cn2ccc3c2-c2oncc2CC3)cc(OC)c1 = inactive
• Cc1cc2c(-c3nc4ccccc4n3C)c(O)c(O)cc2c(O)c1-c1c(C)cc2c(-c3nc4ccccc4n3C)c(O)c(O)cc2c1O = inactive
• Ic1ccc(SSc2ccc(I)cc2)cc1 = inactive
• CCCCCSc1ccc2nc(NC(=O)OCCC)sc2c1 = inactive
• BrCCCOc1ccc(Oc2ccc(OCCCBr)cc2)cc1 = inactive
• CCCNC(=O)Oc1ccc(/C(=C(/C)Cc2ccc(OC)cc2)c2ccc(OCCN3CCCC3)cc2)cc1 = inactive
• Oc1ccccc1\C=N/N=C/C=C/c1ccccc1 = inactive
• O=C(/C=C/c1c[nH]c2ccccc12)c1cc2ccccc2o1 = inactive
• CCOc1ccc(N(C)c2ccc(/C=C/C3=[N+](C)c4ccccc4C3(C)C)cc2)cc1 = inactive
• COC(=O)[C@H](Cc1cn(C)cn1)NC(=O)[C@H](Cc1c[nH]c2ccccc12)NC(=O)Nc1cc(C(F)(F)F)cc(C(F)(F)F)c1 = active
• C/C(=C\c1ccc2ccccc2c1)[N+](=O)[O-] = inactive
• CSc1nc(N)n2nccc2n1 = inactive
• O=C(Nc1ccc(Cl)c(Cl)c1)O/N=C\c1c(Cl)ccc([N+](=O)[O-])c1Cl = inactive
• CC(=O)N(N=O)c1ccc([N+](=O)[O-])cc1Cl = inactive
• C=C(C)[C@@H]1CC[C@]2(COC(=O)c3ccccc3C(=O)O)CC[C@]3(C)[C@H](CC[C@@H]4[C@@]5(C)CCCNC(C)(C)[C@@H]5CC[C@]43C)[C@@H]12 = inactive
• CCCCCCCCCCCCCCCCCCOP(=O)(O)O = inactive
• Cc1nnc(/N=C2\NC(=O)/C(=C/C=C/c3ccccc3)S2)s1 = inactive
• NC(CSC(c1ccccc1)(c1ccccc1)c1ccccc1)C(=O)NCC(=O)O (stereo unspecified) = inactive
• O=C1C(=O)c2ccccc2C(O)=C1CCCc1ccc(C2CCCC2)cc1 = inactive
• CC(C)(C)OC(=O)N1C/C(=C\c2ccccc2)C(=O)/C(=C/c2ccccc2)C1 = inactive
• CCCCCCC(C(=O)OCC)(C(=O)OCC)C1CCCCCC1 = inactive
